Assay: Half life in mouse at 20 mg/kg, po administered as single dose
Format: ADME, organism-based
Parameters: dose 20 mg/kg, route oral
Details: in vivo
MEASURED PROPERTY: half-life (h)
One number for each entry, in h.

Measured half-life of `CNC(=O)c1cc(Oc2ccc3nc(Nc4cccc(C(C)C)c4)ncc3c2)ccn1` : 7.8

* * *

Experiment: Clearance in mouse at 20 mg/kg, po administered as single dose
Format: ADME, organism-based
Set-up: dose 20 mg/kg, route oral
Conditions: in vivo
MEASURED PROPERTY: CL/F (mL/min/kg)
One number for each entry, in mL/min/kg.

Lab note: measured CL/F of `CNC(=O)c1cc(Oc2ccc3nc(Nc4cccc(C(C)C)c4)ncc3c2)ccn1` was 53.1

Data credit: ChEMBL document CHEMBL1949510
